All values here come from ChEMBL document CHEMBL3507680.

assay: Human HepG2 cell viability assay in 384 well format; assay type: toxicity, cell-based; set-up: dose 125 nL, time 70.5 hour; concentration not given beside the values; details: HepG2 cells, read-out: Inhibition
MEASUREMENT NAME: cytotoxicity at 70.5 h (%)
Express it in %; write the number only.

# COMPOUND, cytotoxicity at 70.5 h / %
records = [
    ("CC(C)CN1CCN(C(=O)c2cccnc2-n2cncn2)CC1", 11.2),
    ("COc1ccc(CNC(=O)NCc2nc(C)c(C)s2)cn1", -5.21),
    ("O=C(c1cscn1)N1CCC2(CC1)CN(c1ccccn1)CCO2", -9.14),
    ("Cn1cc(CC(=O)N2CCOC(c3nc(C(C)(C)C)n[nH]3)C2)cn1 (centres undefined)", -1.3),
    ("CC[C@@H](C)[C@@H](N)C(=O)Nc1cccc(-c2cnc(NCCO)nc2)c1", -7.48),
]

Input COc1cccc2c1OCC(C(=O)NCCn1nc(C)c(Cl)c1C)C2 (centres undefined) . Output cytotoxicity at 70.5 h: -5.88

Given item COCC1CCN(c2ccnc3ccsc23)C1 (centres undefined) , the value recorded as its cytotoxicity at 70.5 h is -5.48

For this compound ( Cc1cc2c(cc1C)C(NC1CC1)CCCO2 (centres undefined) ), measured cytotoxicity at 70.5 h is 0.0987

The reported cytotoxicity at 70.5 h of the compound `NC(=O)CN(C(=O)c1cccc(C(F)(F)F)c1)C1CCCC1` was -6

For reference, reported cytotoxicity at 70.5 h for Cc1nc(C2CCCN2C(=O)c2ccc3c(c2)nc(C)n3C)no1 (centres undefined) stands at 3.45

The compound listed as CC(O)c1cn(CC2CCN(C(=O)CN(C)C(C)C)CC2)nn1 (centres undefined) shows cytotoxicity at 70.5 h equal to -6.36

Per the record, Cn1cc(C2SCC(=O)Nc3c2cnn3C(C)(C)C)cn1 (centres undefined) has cytotoxicity at 70.5 h of 0.666

compound CCc1noc(CS(=O)(=O)C(C)c2nc(C3CC3)no2)n1 (centres undefined) , cytotoxicity at 70.5 h observed: 13.9

`CSCCN(C)C(=O)C1(c2ccc(F)cc2F)CCOCC1` yielded cytotoxicity at 70.5 h of -0.975

compound CCc1nnc2n1CC(CNCC1CCCC1)CC2 (centres undefined) , cytotoxicity at 70.5 h observed: -1.75

// cytotoxicity at 70.5 h lookup, compound = `CC(=O)NCCN1CCC(c2cccs2)CC1` , result: 0.738

Per the record, `COCC(=O)N1CCC([C@@H]2C[C@H](C(F)(F)F)n3nc(C)cc3N2)CC1` has cytotoxicity at 70.5 h of -3.42

cytotoxicity at 70.5 h reading for O=C(OCc1ccccc1)c1cccc(NC(=O)C2COCCO2)c1 (centres undefined) : 1.04

// cytotoxicity at 70.5 h lookup, compound = `CC(=O)N1CCC2(CCN(Cc3ccc(Cl)c(C(F)(F)F)c3)CC2)C1` , result: -11.6

cytotoxicity at 70.5 h reported for this compound `CC[C@@H](CO)NC(=O)c1cc(COc2ccc(OC)cc2Cl)[nH]n1` : -3.92

Entry NC(=O)C1CCN(C(=O)CSC2CCCc3ccccc32)CC1 (centres undefined) — recorded cytotoxicity at 70.5 h = 1.96

Entry under test: `O=C(Nc1cccnc1-n1cc(Br)cn1)C1CCCC1` . Its cytotoxicity at 70.5 h was -25.7

// cytotoxicity at 70.5 h value for `Cc1noc(C)c1CN1C[C@H]2CN(Cc3cccc(F)c3)C[C@H]2C1` : -1.37

Lookup result for `COc1ccc(CNCc2cc(Br)c3c(c2)OCO3)cc1` ; measured cytotoxicity at 70.5 h: -3.3
